B1: TPR t1 (parent)
chain: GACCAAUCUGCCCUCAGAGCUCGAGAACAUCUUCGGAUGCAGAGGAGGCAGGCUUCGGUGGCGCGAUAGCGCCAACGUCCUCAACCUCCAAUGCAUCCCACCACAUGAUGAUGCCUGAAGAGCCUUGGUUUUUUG

# Variants of: B1
# Assay name: polymerase ribozyme fitness, log enrichment relative to wild type (log ratio); higher = more active; in vitro selection for triplet polymerase activity
Overview of recorded polymerase ribozyme fitness (log ratio) for various variants

1) G35A U78G
-4.14

query: Look at this variant and give its reported polymerase ribozyme fitness (log ratio). C94U
result: -0.383

query: Look at this variant and give its reported polymerase ribozyme fitness (log ratio). U9C A16U C72G C88A A95C A111U
result: -6.59

query: Look at this variant and give its reported polymerase ribozyme fitness (log ratio). C22U G52A A84C C104U
result: -5.74
